Where a name gives a salt, the structure may show the parent alone.
measure: melting point

>  <compound>
Nc1nc(C=O)cc2nc(-c3ccco3)nn12 [Compound 41]

>  <result>
270 °C (dec.)

$$$$
>  <compound>
Nc1nc(Cn2ccccc2=O)cc2nc(-c3ccco3)nn12 [Compound 37]

>  <result>
239.2 to 239.6 °C

$$$$
>  <compound>
Nc1nc(CCO)cc2nc(-c3ccco3)nn12 [Compound 67]

>  <result>
207.2 to 207.8 °C

$$$$
>  <compound>
Nc1nc(-c2ccc(CNCCc3ccccn3)cc2)cc2nc(-c3ccco3)nn12 [Compound 11]

>  <result>
159.8 to 160.5 °C

$$$$
>  <compound>
Nc1nc(C2=CCN(CC3CC3)CC2)cc2nc(-c3ccco3)nn12

>  <result>
196.9 to 197.4 °C

$$$$
>  <compound>
Nc1nc(C(=O)NCc2ccc(F)c(F)c2)cc2nc(-c3ccco3)nn12 [Compound 82]

>  <result>
254.5 to 254.9 °C

$$$$
>  <compound>
COc1cc(CNCc2ccccc2-c2cc3nc(-c4ccco4)nn3c(N)n2)cc(OC)c1 (as salt: hydrochloride)

>  <result>
213.5 to 214.3 °C

$$$$
>  <compound>
CN(Cc1ccccc1)C(=O)c1cc2nc(-c3ccco3)nn2c(N)n1 (as salt: HCl) [Compound 78]

>  <result>
188.5 to 189.1 °C

$$$$
>  <compound>
Nc1nc(-c2ccccc2C=O)cc2nc(-c3ccco3)nn12 [Compound 2]

>  <result>
224 to 224.5 °C

$$$$
>  <compound>
CC(=O)NCCNCc1ccccc1-c1cc2nc(-c3ccco3)nn2c(N)n1 (as salt: hydrochloride) [Compound 7, monohydrochloride]

>  <result>
230.8 to 231.3 °C

$$$$
>  <compound>
CC(=O)NCCNCc1ccc(-c2cc3nc(-c4ccco4)nn3c(N)n2)cc1 (as salt: hydrochloride) [Compound 16, monohydrochloride]

>  <result>
238.5 to 240 °C

$$$$
>  <compound>
COc1cc(CNCc2cc3nc(-c4ccco4)nn3c(N)n2)cc(OC)c1 (as salt: hydrochloride) [Compound 43, dihydrochloride]

>  <result>
238.5 to 238.7 °C

$$$$
>  <compound>
COCC(C)NCc1ccccc1-c1cc2nc(-c3ccco3)nn2c(N)n1 (racemic) (as salt: hydrochloride) [Compound 9, monohydrochloride]

>  <result>
178.9 to 179.7 °C

$$$$
>  <compound>
Nc1nc(CCc2ccccc2)cc2nc(-c3ccco3)nn12 [Compound 66]

>  <result>
205 to 205.1 °C

$$$$
>  <compound>
COCc1cc2nc(-c3ccco3)nn2c(N)n1 [Compound 23]

>  <result>
167.2 to 167.6 °C

$$$$
>  <compound>
Nc1nc(CNc2ccccc2)cc2nc(-c3ccco3)nn12 [Compound 36]

>  <result>
279.2 to 279.6 °C

$$$$
>  <compound>
Nc1nc(-c2cccc(C=O)c2)cc2nc(-c3ccco3)nn12 [Compound 18]

>  <result>
212.8 to 213.2 °C

$$$$
>  <compound>
Nc1nc(C2=CCN(CC(F)(F)F)CC2)cc2nc(-c3ccco3)nn12

>  <result>
247.5 to 248.2 °C (dec.)

$$$$
>  <compound>
Nc1nc(COc2cccc(Br)c2)cc2nc(-c3ccco3)nn12

>  <result>
261.5 to 261.9 °C

$$$$
>  <compound>
Nc1nc(-c2cncnc2)cc2nc(-c3ccco3)nn12 [Compound 56]

>  <result>
271 °C (dec.)

$$$$
>  <compound>
Nc1nc(-c2ccccc2)cc2nc(-c3ccco3)nn12 [Compound 1]

>  <result>
218.5 to 219 °C

$$$$
>  <compound>
Nc1nc(-c2cccc(CNCCc3ccccn3)c2)cc2nc(-c3ccco3)nn12 [Compound 19]

>  <result>
159.2 to 159.4 °C

$$$$
>  <compound>
Nc1nc(-c2ccncc2)cc2nc(-c3ccco3)nn12 [Compound 54]

>  <result>
279.2 to 279.9 °C

$$$$
>  <compound>
Nc1nc(-c2ccccc2CNCCc2ccccn2)cc2nc(-c3ccco3)nn12 [Compound 4]

>  <result>
179.2 to 180 °C

$$$$
>  <compound>
Nc1nc(CNCCc2ccccn2)cc2nc(-c3ccco3)nn12 (as salt: hydrochloride) [Compound 44, dihydrochloride]

>  <result>
249.5 to 249.7 °C

$$$$
>  <compound>
CN(C)CCN(Cc1ccccc1)C(=O)c1cc2nc(-c3ccco3)nn2c(N)n1

>  <result>
215.2 to 215.4 °C

$$$$
>  <compound>
Nc1nc(-c2ccc(C=O)cc2)cc2nc(-c3ccco3)nn12 [Compound 10]

>  <result>
273.5 to 274 °C

$$$$
>  <compound>
COc1ccc(CNCc2cc3nc(-c4ccco4)nn3c(N)n2)cc1OC (as salt: hydrochloride) [Compound 42, dihydrochloride]

>  <result>
241.2 to 241.5 °C

$$$$
>  <compound>
Nc1nc(C(=O)NCC2CCCCC2)cc2nc(-c3ccco3)nn12

>  <result>
273.5 to 274 °C

$$$$
>  <compound>
CCOCc1cc2nc(-c3ccco3)nn2c(N)n1 [Compound 24]

>  <result>
153.8 to 154.6 °C

$$$$
>  <compound>
Nc1nc(-c2ccc(CNCCCN3CCCC3=O)cc2)cc2nc(-c3ccco3)nn12 (as salt: hydrochloride) [Compound 14, monohydrochloride]

>  <result>
269.2 to 269.8 °C

$$$$
>  <compound>
COc1ccc(CNCc2ccc(-c3cc4nc(-c5ccco5)nn4c(N)n3)cc2)cc1OC (as salt: hydrochloride)

>  <result>
256.2 to 256.8 °C

$$$$
>  <compound>
Nc1nc(C(=O)NCCCn2ccnc2)cc2nc(-c3ccco3)nn12 [Compound 90]

>  <result>
198.5 to 198.8 °C

$$$$
>  <compound>
Nc1nc(COc2ccccc2F)cc2nc(-c3ccco3)nn12 [Compound 30]

>  <result>
196.8 to 197.1 °C

$$$$

FYI, the data here is from patent US20060058320A1.
